Where these numbers come from: ChEMBL document CHEMBL1221337

# Test system: HeLa
# Protocol Details: Cytotoxicity against human HeLa cells after 72 hrs by MTT assay
# Assay type: functional, cell-based
pIC50: −log10 of the molar value.
Parameter: pIC50

Would you please look over these solved cases?
> print(dat)
                         chemical.structure   value
1  O=C(NC/C=C\Cn1cc(F)c(=O)[nH]c1=O)c1ccccc1  < 4.00
2      Nc1ccn(C/C=C\CNC(=O)c2ccccc2)c(=O)n1  < 4.00
3    O=C(NC/C=C\Cn1ccc(=O)[nH]c1=O)c1ccccc1    5.31
4  O=C(NC/C=C\Cn1ccc(=O)[nH]c1=O)c1ccc(F)cc1  < 4.00
5  O=C(NC/C=C\Cn1cc(C(F)(F)F)c(=O)[nH]c1=O)c1ccccc1  < 4.00

Please give pIC50, item by item, for the list that follows.
1. Nc1ncnc2c1ncn2C/C=C\CNC(=O)c1ccccc1
2. Nc1nc(=O)n(C/C=C\CNC(=O)c2ccc(F)cc2)cc1F
3. Cc1cn(C/C=C\CNC(=O)c2ccc(F)cc2)c(=O)[nH]c1=O
4. Nc1nc(=O)n(C/C=C\CNC(=O)c2ccccc2)cc1F
5. Cc1cn(C/C=C\CNC(=O)c2ccccc2)c(=O)[nH]c1=O
6. Nc1ccn(C/C=C\CNC(=O)c2ccc(F)cc2)c(=O)n1

["< 4.00", "< 4.00", "< 4.00", 4.14, "< 4.00", "< 4.00"]

###

# Test system: HEp-2
# Protocol Details: Cytotoxicity against human Hep2 cells after 72 hrs by MTT assay
# Type: functional, cell-based
# Test Conditions: HEp-2, 72 h
pIC50: −log10 of the molar value.
Would you kindly list pIC50 for each of these molecules?

> print(dat)
                         chemical.structure  measured.on  parameter   value
1  Cc1cn(C/C=C\CNC(=O)c2ccccc2)c(=O)[nH]c1=O        HEp-2      pIC50  < 4.00

For every item in the list below, what is its measured pIC50?
1. Cc1cn(C/C=C\CNC(=O)c2ccc(F)cc2)c(=O)[nH]c1=O
2. O=C(NC/C=C\Cn1ccc(=O)[nH]c1=O)c1ccc(F)cc1
3. O=C(NC/C=C\Cn1cc(C(F)(F)F)c(=O)[nH]c1=O)c1ccccc1
4. Nc1ccn(C/C=C\CNC(=O)c2ccc(F)cc2)c(=O)n1

< 4.00
< 4.00
< 4.00
< 4.00

Please supply pIC50 for each of the following items, keeping them in order.
1. Nc1ccn(C/C=C\CNC(=O)c2ccccc2)c(=O)n1
2. Nc1nc(=O)n(C/C=C\CNC(=O)c2ccccc2)cc1F
3. O=C(NC/C=C\Cn1ccc(=O)[nH]c1=O)c1ccccc1
4. Nc1nc(=O)n(C/C=C\CNC(=O)c2ccc(F)cc2)cc1F
5. Nc1ncnc2c1ncn2C/C=C\CNC(=O)c1ccccc1
6. O=C(NC/C=C\Cn1cc(F)c(=O)[nH]c1=O)c1ccccc1

< 4.00
< 4.00
< 4.00
4.49
< 4.00
4.06
